Where these numbers come from: PubChem BioAssay (Tox21)

Target: Cytochrome P450 2C19 (Homo sapiens)
Experiment: Cytochrome P450 Family 2 Subfamily C Member 19 (CYP2C19) small molecule antagonists: luciferase reporter qHTS assay (AID 1671197); note: nearly all actives have a fitted effect of over 65% in size
Settings: P450-Glo CYP2C19 enzyme, luciferin luminescence, 1 h; series mostly up to 52.9 µM
Records with an inconclusive call do not appear. Active and inactive are the calls of the source. Calls come from the whole dose curve; as a rule, active = well fitted inhibition curve with a large enough effect in the repeat runs; inconclusive = weak or mixed curves; inactive = no such curve, though single readings can be large or run the other way.
Respond only with the outcome that fits, drawn from active, inactive

Query: recorded result category for Cc1nc(-c2ccc3c(c2)CCN(CCC2CCC(NC(=O)/C=C/c4ccc(F)cc4)CC2)CC3)no1 (stereo unspecified) in this test inactive

Hi, sorry to bother you, what did the test record for C/C(=C(/OCCOc1ccc(Cl)cc1)c1ccc(Cl)cc1Cl)n1ccnc1 ? active

Check the results log: what was the call for CCCCCCCCCCCC(=O)NCCCN(C)C ? active

Called result for CCCCC(CC)COC(=O)c1ccccc1C(=O)O (stereo unspecified) active

Give the logged outcome of this assay for the following molecule: CS(=O)(=O)CCNCc1ccc(-c2ccc3ncnc(Nc4ccc(OCc5cccc(F)c5)c(Cl)c4)c3c2)o1 active

How was Cc1cccc(CN2CCN(C(c3ccccc3)c3ccc(Cl)cc3)CC2)c1 (stereo unspecified) classified in this test? active
